# System under test: Cad1 (UniProt P24813)
# Sequence: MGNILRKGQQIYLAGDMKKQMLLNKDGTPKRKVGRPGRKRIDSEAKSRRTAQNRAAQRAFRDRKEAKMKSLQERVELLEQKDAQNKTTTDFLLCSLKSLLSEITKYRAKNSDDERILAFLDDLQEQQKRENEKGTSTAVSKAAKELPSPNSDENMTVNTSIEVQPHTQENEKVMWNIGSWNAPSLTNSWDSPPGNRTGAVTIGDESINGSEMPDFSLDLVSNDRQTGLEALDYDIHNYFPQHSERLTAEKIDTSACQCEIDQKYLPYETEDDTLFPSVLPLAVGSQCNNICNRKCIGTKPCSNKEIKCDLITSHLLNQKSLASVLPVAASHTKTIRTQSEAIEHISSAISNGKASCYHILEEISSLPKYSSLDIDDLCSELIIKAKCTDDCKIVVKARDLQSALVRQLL
# Assay remarks: PBM E-score (8-mer binding enrichment) (E-score (-0.5 to 0.5)); higher = stronger / more preferred TF binding
# Experimental conditions: protein concentration: 100 nM; construct: GST-full length
Whole data set: some 33,000 sequences, median “E-score (-0.5 to 0.5)” near -0.0014, cut for the highest 2% near 0.25. For the sample, the highest values were picked, then their nearest neighbours and some sequences at random.
Attribute measured: PBM E-score
// no unit, no text: just the number

Summary line: `CGATGAAG` , Cad1 (UniProt P24813), reported PBM E-score = -0.0787

Summary line: `ACTAAAAA` , Cad1 (UniProt P24813), reported PBM E-score = 0.107

Summary line: `ACGGATCC` , Cad1 (UniProt P24813), reported PBM E-score = -0.0362

Summary line: `CCCGCCTA` , Cad1 (UniProt P24813), reported PBM E-score = 0.0947

Summary line: `ATTAAAAT` , Cad1 (UniProt P24813), reported PBM E-score = 0.253

Summary line: `ATGCGCAC` , Cad1 (UniProt P24813), reported PBM E-score = 0.14

Summary line: `CCGCGCAA` , Cad1 (UniProt P24813), reported PBM E-score = 0.0795

Summary line: `ATACGCAA` , Cad1 (UniProt P24813), reported PBM E-score = 0.119

Summary line: `ACAGCACG` , Cad1 (UniProt P24813), reported PBM E-score = -0.0152

Summary line: `CTGGAATC` , Cad1 (UniProt P24813), reported PBM E-score = -0.0416

Summary line: `ACGCGCAA` , Cad1 (UniProt P24813), reported PBM E-score = 0.206

Summary line: `GTACGCAA` , Cad1 (UniProt P24813), reported PBM E-score = 0.0953

Summary line: `ATTAAAAA` , Cad1 (UniProt P24813), reported PBM E-score = 0.221

----------
# System under test: Cad1 (UniProt P24813)
# Sequence: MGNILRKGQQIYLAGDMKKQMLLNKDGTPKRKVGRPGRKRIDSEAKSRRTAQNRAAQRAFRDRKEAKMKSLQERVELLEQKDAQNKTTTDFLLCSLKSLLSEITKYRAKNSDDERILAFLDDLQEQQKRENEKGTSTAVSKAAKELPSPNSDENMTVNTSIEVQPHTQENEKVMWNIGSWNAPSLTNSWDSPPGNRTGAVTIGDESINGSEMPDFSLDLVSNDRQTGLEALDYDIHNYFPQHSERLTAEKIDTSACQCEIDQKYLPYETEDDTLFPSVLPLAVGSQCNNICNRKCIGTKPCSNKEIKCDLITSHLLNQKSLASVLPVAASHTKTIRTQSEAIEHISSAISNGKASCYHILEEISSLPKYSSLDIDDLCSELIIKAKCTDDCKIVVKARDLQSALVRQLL
# Assay remarks: PBM E-score (8-mer binding enrichment) (E-score (-0.5 to 0.5)); higher = stronger / more preferred TF binding
# Experimental conditions: protein concentration: 100 nM; construct: GST-full length
Whole data set: some 33,000 sequences, median “E-score (-0.5 to 0.5)” near -0.0014, cut for the highest 2% near 0.25. The full list was thinned out, with the highest values kept by preference.
PBM E-score values, listed per item
// no unit, no text: just the number

Summary for this sequence, `CTCTAGTC` : PBM E-score is -0.388

Where do the numbers come from? From the supplement of paper PMC3334620.
